B1: FERM and PDZ domain-containing protein 4, residues 75 to 154; numbered along this chain, Q14CM0 (parent)
chain: APRKVEMRRDPVLGFGFVAGSEKPVVVRSVTPGGPSEGKLIPGDQIVMINDEPVSAAPRERVIDLVRSCKESILLTVIQP

# Variants of: B1
# Assay Notes: abundance fitness (aPCA) (normalised: wild type 0, dead -1); higher = more abundant; growth selection in yeast, the domain comes from the species named
# Run Conditions: Homo sapiens
abundance fitness listing for selected variants.
Kindly provide the number alone.

Some entries whose results are on file:
T76A ... -0.132
R61P ... -0.505
P11H ... -0.208
Q79T ... 0.028
K23V ... -0.136

Look up abundance fitness: T76E
-0.025

# iterate: Q45H
-0.009

Item: V77T
-0.231

Reference source: the Human Domainome abundance scans (Beltran et al. 2025)
